Reported IC50 values follow for various compounds
Test system: CaCo-2 colon carcinoma
Assay: Cytotoxicity against CaCo-2 cells by MTT assay
Type: cell-based
Settings: Homo sapiens, 48 h drug exposure, 0.01-40 μM, read-out: IC50 (μM) 48 h
Return type: number; implicit unit µM.

Known results for compounds:
MOLECULE_SMILES	IC50 (µM)
O=C1c2cccc3cccc(c23)C(=O)N1CCCNCCCCCCCNCCCN1C(=O)c2cccc3cccc(c23)C1=O	0.94
O=C1c2cccc3cccc(c23)C(=O)N1CCCNCCCCCCNCCCN1C(=O)c2cccc3cccc(c23)C1=O	2
O=C1c2cccc3cccc(c23)C(=O)N1CCCNCCCCNCCCNCCCN1C(=O)c2cccc3cccc(c23)C1=O	0.47
O=C1c2cccc3cccc(c23)C(=O)N1CCCNCCCNCCCNCCCN1C(=O)c2cccc3cccc(c23)C1=O	3.2

IN: So what's the measured IC50 for this one? O=C1c2cccc3cccc(c23)C(=O)N1CCCNCCNCCNCCCN1C(=O)c2cccc3cccc(c23)C1=O
OUT: 22.3

---

Reported IC50 values follow for various molecules
Test system: axenic amastigote of Leishmania infantum
Experiment: Growth of luciferase-expressing axenic amastigotes (luciferase assay)
Assay type: cell-based
Conditions: Leishmania infantum; axenic amastigotes, 72 h of incubation, 37° C.
Return type: number; implicit unit µM.

IN: Under axenic amastigote of Leishmania infantum: IC50 value of O=C1c2cccc3cccc(c23)C(=O)N1CCCNCCCCNCCCN1C(=O)c2cccc3cccc(c23)C1=O ?
OUT: 5.49

IN: Param item: O=C1c2cccc3cccc(c23)C(=O)N1CCCNCCCCCCCCCNCCCN1C(=O)c2cccc3cccc(c23)C1=O
OUT: 17.4

IN: Param item: O=C1c2cccc3cccc(c23)C(=O)N1CCCNCCNCCNCCCN1C(=O)c2cccc3cccc(c23)C1=O
OUT: 6.97

IN: Param item: O=C1c2cccc3cccc(c23)C(=O)N1CCCNCCCNCCCNCCCN1C(=O)c2cccc3cccc(c23)C1=O
OUT: 5.24

IN: Param item: O=C1c2cccc3cccc(c23)C(=O)N1CCCNCCCCNCCCNCCCN1C(=O)c2cccc3cccc(c23)C1=O
OUT: 9.61
